- study.target: T1, HSP70 (human HSP70; the antigen of the binning, humanization and variant binding assays) (human, UniProt P0DMV8 1-641, limits assumed)
- T1 construct: also called hu HSP70
- T1 sequence (P0DMV8 whole entry, change not shown): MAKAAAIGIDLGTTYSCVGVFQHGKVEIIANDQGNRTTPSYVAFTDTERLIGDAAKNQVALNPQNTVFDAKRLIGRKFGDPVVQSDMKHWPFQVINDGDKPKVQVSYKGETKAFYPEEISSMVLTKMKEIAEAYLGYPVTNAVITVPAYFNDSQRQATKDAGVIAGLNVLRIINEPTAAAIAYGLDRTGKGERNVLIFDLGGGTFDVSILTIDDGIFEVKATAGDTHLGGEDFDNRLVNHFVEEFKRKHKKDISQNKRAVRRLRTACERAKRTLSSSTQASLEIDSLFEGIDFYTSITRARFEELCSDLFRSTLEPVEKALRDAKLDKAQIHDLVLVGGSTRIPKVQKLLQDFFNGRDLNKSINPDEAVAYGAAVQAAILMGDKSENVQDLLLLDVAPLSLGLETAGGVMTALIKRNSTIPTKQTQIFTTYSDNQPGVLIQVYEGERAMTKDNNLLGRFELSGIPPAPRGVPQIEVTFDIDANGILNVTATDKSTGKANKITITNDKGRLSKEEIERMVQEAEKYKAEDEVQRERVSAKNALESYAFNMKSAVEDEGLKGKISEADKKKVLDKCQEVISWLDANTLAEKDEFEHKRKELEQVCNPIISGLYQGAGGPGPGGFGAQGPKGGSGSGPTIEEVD
- assay.notes: BLI, anti-human Fc capture, antigen 100 nM
Please go through the items and note down their % Diss.

Provide each entry's % Diss from the list below.
1. h77A-1.12 (antibody, V domains shown, captured by anti-human Fc) VH: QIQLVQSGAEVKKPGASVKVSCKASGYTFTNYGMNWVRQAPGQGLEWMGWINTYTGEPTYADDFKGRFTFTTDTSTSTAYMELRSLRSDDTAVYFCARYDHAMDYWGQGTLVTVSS VL: EIVLTQSPDSLAVSLGERATINCKSSQSLFNSGTRKNYLAWYQQKAGQSPKLLIYWTSTRESGVPDRFSGSGSGTDFTLTIDSLQAEDVAVYYCKQSYTLYTFGGGTKVEIK
2. h77A-1.17 (antibody, V domains shown, captured by anti-human Fc) VH: QIQLVQSGAEVKKPGASVKVSCKASGYTFTKYGMNWVRQAPGQGLEWMGWINTYTGEPTYADDFKGRFTFTTDTSTSTAYMELRSLRSDDTAVYFCARYDHSMDYWGQGTLVTVSS VL: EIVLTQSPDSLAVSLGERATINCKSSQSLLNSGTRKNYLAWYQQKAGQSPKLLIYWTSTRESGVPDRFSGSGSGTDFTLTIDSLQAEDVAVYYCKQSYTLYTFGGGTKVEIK
3. h77A-1.85 (antibody, V domains shown, captured by anti-human Fc) VH: QIHLVQSGAEVKKPGASVKVSCKASGYIFTNYGMNWVRQAPGQGLEWMGWINTYTGEPTYADDFKGRFTFTTDTSTSTAYMELRSLRSDDTAVYFCVRYDHAMDYWGQGTLVTVSS VL: EIVLTQSPDSLAVSLGERATINCKSSQSLLNSGTRKNYLSWYQKKSGQSPKLLIYWTSTRESGVPDRFSGSGSGTDFTLTIDSLQAEDVAVYYCKQSYTLYTFGGGTKVEIK
4. h77A-1.30 (antibody, V domains shown, captured by anti-human Fc) VH: QIQLVQSGAEVKKPGASVKVSCKASGYTFTNYGMNWVRQAPGQGLEWMGWINTYTGEPTYADDFKGRFTFTTDTSTSTAYMEVRSLRSDDTAVYFCARYDHAMDYWGQGTLVTVSS VL: EIVLTQSPDSLAVSLGERATINCKSSQSLLNSGTRKNYLAWYQQKAGQSPKLIIYWTSTRESGVPDRFSGSGSGTDFTLTIDSLQAEDVAVYYCKQSYTLYTFGGGTKVEIK

RESULT:
4.74%
7.04%
16.1%
5.1%

Provide each entry's % Diss from the list below.
1. h77A-1.65 (antibody, V domains shown, captured by anti-human Fc) VH: QIQLVQSGAEVKKPGASVKVSCKASGYTFTNYGMNWVRQAPGQGLEWMGWINTYTGEATYADDFKGRFTFTTDTSTSTAYMELRSLRSDDTAVYFCARYDHAMDYWGQGSLVTVSS VL: EIVLTQSPDSLAVSLGERATINCKSSQSLLNSGTRKNYLAWYQQKSGQSPKLLIYWTSTRESGVPDRFSGSGSGTDFTLTIDSLQAEDVAIYYCKQSYTLYTFGGGTKVEIK
2. h77A-1.98 (antibody, V domains shown, captured by anti-human Fc) VH: QIQLVQSGAEVKKPGASVKVSCKASGYTFTNYGMNWVRQAPGQGLEWMGWINTYTGEPTYADDFKGRFTMTTDTSTSTAYMELRSLRSDDTAVYFCARYDHAMDYWGQGTLVTVSS VL: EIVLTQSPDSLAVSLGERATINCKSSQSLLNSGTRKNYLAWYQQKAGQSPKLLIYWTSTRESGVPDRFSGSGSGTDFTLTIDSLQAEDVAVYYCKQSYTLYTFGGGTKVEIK

RESULT:
["20.5%", "34.5%"]

Provide each entry's % Diss from the list below.
1. h77A-1.66 (antibody, V domains shown, captured by anti-human Fc) VH: QIQLVQSGAEVKKPGASVKVSCKASGYIFTNYGMNWVRQAPGQGLEWMGWINTYTGESTYADDFKGRFTFTTDTSTSTVYMELRSLRSDDTAVYFCARYDHAMDYWGQGTLVTVSS VL: EIVLTQSPDSLAVSLGERATIKCKSSQSLLNSGTRKNYLAWYQQKAGQSPKLLIYWTSTRESGVPDRFSGSGSGTDFTLTIDSLQAEDVAVYYCKQSYTLYTFGGGTKVEIK
2. h77A-1.52 (antibody, V domains shown, captured by anti-human Fc) VH: QIQLVQSGVEVKKPGASVKVSCKASGYIFTNYGMNWVRQAPGQGLEWMGWINTYTGEPRYADDFKGRFTFTTDTSTSTAYMELRSLRSDDTAVYFCARYDHRMDYWGQGTLVTVSS VL: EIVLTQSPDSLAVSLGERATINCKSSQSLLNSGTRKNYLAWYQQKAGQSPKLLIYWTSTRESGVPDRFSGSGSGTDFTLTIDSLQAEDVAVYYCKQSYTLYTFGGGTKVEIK
3. h77A-1.9 (antibody, V domains shown, captured by anti-human Fc) VH: QIQLVQSGAEVKKPGASVKVSCKASGYTFTNYGMNWVRQAPGQGLEWMGWINTYTGEPTYADDFKGRFTFTTDTSTSTAYMELRSLRSDDTAVYFCARYDHTMDYWGQGTLVTVSS VL: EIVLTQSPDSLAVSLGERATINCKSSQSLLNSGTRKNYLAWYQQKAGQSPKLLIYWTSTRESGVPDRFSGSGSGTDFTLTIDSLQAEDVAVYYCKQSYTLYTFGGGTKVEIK
4. h77A-1.33 (antibody, V domains shown, captured by anti-human Fc) VH: QIQLVQSGAEVKKPGASVKVSCKASGYTFTKYGMNWVRQAPGQGLEWMGWINTYTGEPTYADDFKGRFTFTTDTSTSTAYMELRSLRSDDTAVYFCARYDHNMDYWGQGTLVTVSS VL: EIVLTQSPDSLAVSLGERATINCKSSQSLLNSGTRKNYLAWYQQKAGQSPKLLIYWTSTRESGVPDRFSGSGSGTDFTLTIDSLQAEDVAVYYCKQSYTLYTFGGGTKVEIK

RESULT:
32.1%
-115%
18.3%
20.6%

Sourced from patent US20250084155A1
